The origin of these recorded values is paper PMC3568192.

Measurement target: T1, FBF-2 (164-575) (C. elegans, UniProt Q09312 164-575)
T1 sequence (looked up): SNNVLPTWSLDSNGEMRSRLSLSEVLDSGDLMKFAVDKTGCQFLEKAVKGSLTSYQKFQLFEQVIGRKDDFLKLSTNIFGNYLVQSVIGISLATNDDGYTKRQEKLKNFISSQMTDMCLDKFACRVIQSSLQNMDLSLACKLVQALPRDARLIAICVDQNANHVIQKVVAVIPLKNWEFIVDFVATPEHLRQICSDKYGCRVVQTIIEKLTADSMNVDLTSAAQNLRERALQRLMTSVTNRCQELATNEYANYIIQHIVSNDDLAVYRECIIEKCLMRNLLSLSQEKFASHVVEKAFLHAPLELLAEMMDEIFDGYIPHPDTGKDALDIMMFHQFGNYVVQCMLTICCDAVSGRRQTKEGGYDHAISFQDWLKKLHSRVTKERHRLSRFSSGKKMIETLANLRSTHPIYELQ
Assay summary: fluorescence polarisation
Value type: pIC50
Friendly reminder that pIC50 comes from taking -log10 of the concentration in mol/L.

The binder listed as CPB-1(19-80) (domain or fragment, C. elegans, UniProt Q03571 19-80, looked up) SSHGHRRSTESKKSGGHGNPYLSTDKTNLDISVSFLTSQAQKKMRGMSANHGIFDPTEMLTA has a reported pIC50 of 5.94
